We begin with IC50 values for BRD3 (Homo sapiens (Human)), as collected from the published literature.

molecule | studySystem | IC50 / nM
COc1ccc(-c2nc3c(n2C(C)C)C(c2ccc(Cl)cc2)N(c2cc(C)c4nnc(C)n4c2)C3=O)cn1 (stereo not shown) | BRD3 (Homo sapiens (Human)) | 34
Cc1cc(N2C(=O)c3c(NC(=O)CCN(C)C)cn(C)c3C2c2ccc(Cl)cc2)nn2c(C(F)F)nnc12 (stereo not shown) | BRD3 (Homo sapiens (Human)) | 37
COc1cc(F)ccc1-c1nc2c([nH]1)C(c1ccc(Cl)cc1)N(c1cc(C)c3nnc(C)n3c1)C2=O (stereo not shown) | BRD3 (Homo sapiens (Human)) | 89
Cc1cc(N2C(=O)c3nn(C4CC4)c(C)c3C2c2ccc(Cl)cc2)cn(C)c1=O (stereo not shown) | BRD3 (Homo sapiens (Human)) | 77
CC(=O)N1CC=C(c2nc3c(n2C(C)C)C(c2ccc(Cl)cc2)N(c2cc(C)c4nnc(C)n4c2)C3=O)CC1 (stereo not shown) | BRD3 (Homo sapiens (Human)) | 66
CCc1c2c(nn1CCO)C(=O)N(c1cc(C)c3onc(C)c3c1)C2c1ccc(Cl)cc1 (stereo not shown) | BRD3 (Homo sapiens (Human)) | 36
Cc1c2c(nn1C1CC1)C(=O)N(c1cc(Cl)c(=O)n(C)c1)C2c1ccc(Cl)cc1 (stereo not shown) | BRD3 (Homo sapiens (Human)) | 97

----------
We begin with IC50 values for BRD3 (Homo sapiens (Human), UniProt Q15059), as collected from the published literature.
IC50 less than 60 nM is true; IC50 greater than or equal to 60 nM is false.

compound | class
COCCn1cc(C)c2c1C(c1ccc(Cl)cc1)N(c1cc(C)c3nnc(C)n3c1)C2=O (stereo not drawn) | false
Cc1cc(N2C(=O)c3c(C4CC4)nn(C)c3[C@H]2c2ccc(Cl)cc2)cn2c(CF)nnc12 | true
Cc1cc(N2C(=O)c3nc(C4=CCOC4)n(C(C)C)c3C2c2ccc(Cl)cc2)cn2c(CF)nnc12 (stereo not drawn) | true
Cc1cc(N2C(=O)c3nc(C4=CCOCC4)[nH]c3C2c2ccc(Cl)cc2)cn(C)c1=O (stereo not drawn) | true
Cc1nn(C2CC2)c2c1C(c1cccc(C(F)(F)F)c1)N(c1cc(C)c(=O)n(C)c1)C2=O (stereo not drawn) | false
Cc1c2c(nn1C)C(=O)N(c1cc(Cl)c(=O)n(C)c1)C2c1ccc(Cl)cc1 (stereo not drawn) | false
COc1ncc(-n2nc3c(c2C(F)(F)F)C(c2ccc(Cl)cc2)N(c2cc(Cl)c(=O)n(C)c2)C3=O)c(OC)n1 (stereo not drawn) | false
Cc1cc(N2C(=O)c3nc(C4CCOC4)n(C(C)C)c3[C@H]2c2ccc(Cl)cc2)cc2c1nnn2C (stereo partly drawn) | true
Cc1nn(C2CC2)c2c1C(c1ccc(Cl)cc1)N(c1cc(C)c3nnn(C)c3n1)C2=O (stereo not drawn) | true
COc1ncc(-c2nc3c(n2C(C)C)[C@@H](c2ccc(Cl)cc2)N(c2cc(C)c4nnc(C(F)F)n4c2)C3=O)c(OC)n1 | true
Cc1nn(C2CC2)c2c1C(=O)N(c1cc(C)c(=O)n(C)c1)C2c1ccc(Cl)cc1 (stereo not drawn) | true
Cc1cc(N2C(=O)c3nc(C4=CCCN(C)C4)n(C(C)C)c3[C@H]2c2ccc(Cl)cc2)cn2c(C)nnc12 | true
COc1ccc(-c2nc3c(n2C(C)C)[C@@H](c2ccc(Cl)cc2)N(c2cc(OC)c4nnn(C)c4c2)C3=O)cn1 | false
Cc1n[nH]c2c1[C@@H](c1ccc(Cl)cc1)N(c1cc(C)c3nnc(C)n3c1)C2=O | true

----------
We begin with IC50 values for UniProt Q15059, as collected from the published literature.
measuredEndpoint: IC50 (nM)

molecule | units | testResult
COc1ncccc1-n1nc(C)c2c1C(=O)N(c1cc(C)c(=O)n(C)c1)C2c1ccc(Cl)cc1 (centres unmarked) | nM | 58
Cc1cc(N2C(=O)c3nn(C)cc3C2c2ccc(Cl)cc2)cn(C)c1=O (centres unmarked) | nM | 150
CCc1nn(C(=O)N(C)C)c2c1C(c1ccc(Cl)cc1)N(c1cc(C)c(=O)n(C)c1)C2=O (centres unmarked) | nM | 120
Cc1c2c(nn1C)C(=O)N(c1cc(Cl)c(=O)n(C)c1)[C@H]2c1ccc(Cl)cc1 | nM | 27000
COc1ncccc1-n1nc(C)c2c1C(=O)N(c1cc(C)c3nnc(C)n3n1)C2c1ccc(Cl)cc1 (centres unmarked) | nM | 24
COc1cc(N2C(=O)c3nc(C4CCOCC4)n(C(C)C)c3[C@H]2c2ccc(Cl)cc2)cc2c1nnn2C | nM | 74
Cc1cc(N2C(=O)c3c(C4CC4)cn(C4CN(C)C4)c3C2c2ccc(Cl)cc2)cn2c(C)nnc12 (centres unmarked) | nM | 19
Cc1cc(N2C(=O)c3nc(C4=CCOC4)n(C(C)C)c3[C@H]2c2ccc(Cl)cc2)cn2c(C)nnc12 | nM | 33

----------
We begin with pIC50 values for BRD3 (Homo sapiens (Human), UniProt Q15059), as collected from the published literature.
pIC50: −log10 of the molar value.

compound | studySystem | signQualifier | pIC50
Cc1n[nH]c2c1C(c1ccc(Cl)cc1F)N(c1cc(C)c3nnc(C)n3c1)C2=O (centres unmarked) | BRD3 (Homo sapiens (Human), UniProt Q15059) | = | 7.12
Cc1cnc(Nc2ccc(N3CCN(C)CC3)cc2)nc1Nc1cccc(NS(=O)(=O)C(C)(C)C)c1 | BRD3 (Homo sapiens (Human), UniProt Q15059) | = | 7.90
COc1ncccc1-c1nc2c(n1C(C)C)[C@@H](c1ccc(Cl)cc1)N(c1cc(C)c3nnn(C)c3n1)C2=O | BRD3 (Homo sapiens (Human), UniProt Q15059) | > | 7.96
Cc1cc(N2C(=O)c3nn(C4CC4)c(C(F)(F)F)c3C2c2ccc(Cl)cc2)cn(C)c1=O (centres unmarked) | BRD3 (Homo sapiens (Human), UniProt Q15059) | = | 6.96
COc1ncccc1-c1nc2c(n1C(C)C)C(=O)N(c1cc(C)c(=O)n(C)c1)C2c1ccc(Cl)cc1 (centres unmarked) | BRD3 (Homo sapiens (Human), UniProt Q15059) | = | 7.41
Cc1cc(N2C(=O)c3nc(C4CC4)n(C(C)C)c3C2c2ccc(Cl)cc2)cn2c(C(F)F)nnc12 (centres unmarked) | BRD3 (Homo sapiens (Human), UniProt Q15059) | = | 7.54
Cc1cc(N2C(=O)c3c(C4CC4)c(C)n(C)c3C2c2ccc(Cl)cc2)cn2c(C)nnc12 (centres unmarked) | BRD3 (Homo sapiens (Human), UniProt Q15059) | = | 7.82
Cn1ccc2c1C(c1ccc(C#N)cc1)N(c1cc(Cl)c(=O)n(C)c1)C2=O (centres unmarked) | BRD3 (Homo sapiens (Human), UniProt Q15059) | = | 6.68

----------
We begin with IC50 values for BRD3 (Homo sapiens (Human), UniProt Q15059), as collected from the published literature.
Classification by IC50 | ranges: lo = under 40 nM, med = from 40 nM up to 100 nM, hi = 100 nM and over

compound | class
Cc1nn(C2CNC2)c2c1C(c1ccc(Cl)cc1)N(c1cc(C)c3nnc(C)n3c1)C2=O (stereo not shown) | hi
Cc1cc(N2C(=O)c3nc(C)n(C(C)C)c3[C@H]2c2ccc(Cl)cc2)cn2c(C)nnc12 | lo
COc1ccc(-c2nc3c([nH]2)[C@@H](c2ccc(Cl)cc2)N(c2cc(OC)c4nnc(C)n4c2)C3=O)cn1 | hi
Cc1ncccc1-n1nc(C)c2c1C(=O)N(c1cc(C)c(=O)n(C)c1)C2c1ccc(Cl)cc1 (stereo not shown) | med
Cc1cc(N2C(=O)c3cc(-c4cccnc4O)[nH]c3C2c2ccc(Cl)cc2)cn2c(C)nnc12 (stereo not shown) | med
Cc1[nH]nc2c1C(c1ccc(Cl)cc1)N(c1cc(Cl)c(=O)n(C)c1)C2=O (stereo not shown) | hi
COc1ncc(-c2cc3c(n2C)C(c2ccc(Cl)cc2)N(c2cc(Cl)c(=O)n(C)c2)C3=O)c(OC)n1 (stereo not shown) | med
COc1ncccc1-n1nc2c(c1C)C(=O)N(c1cc(C)c(=O)n(C)c1)[C@@H]2c1ccc(Cl)cc1 | med
CCn1nc(C)c2c1C(=O)N(c1cc(C)c3nnc(C)n3c1)C2c1ccc(Cl)cc1F (stereo not shown) | lo
CC(=O)Nc1cn(C)c2c1C(=O)N(c1cc(C)c3nnn(C)c3n1)C2c1ccc(Cl)cc1 (stereo not shown) | lo
COc1ncc(-n2nc(C)c3c2C(=O)N(c2cc(C)c(=O)n(C)c2)C3c2ccc(Cl)cc2)c(OC)n1 (racemic) | med
Cc1c2c(nn1C)C(=O)N(c1ccc3nnc(C)n3c1)C2c1ccc(Cl)cc1 (stereo not shown) | hi
Cc1cc(N2C(=O)c3c(C4CC4)n[nH]c3C2c2ccc(Cl)cc2)cn(C)c1=O (stereo not shown) | med
Cc1cc(N2C(=O)c3nn(C(C)C)c(C)c3C2c2ccc(Cl)cc2)cn(C)c1=O (stereo not shown) | hi
COc1ccc(-c2cc3c(n2C)C(c2ccc(Cl)cc2)N(c2cc(C)c(=O)n(C)c2)C3=O)cn1 (stereo not shown) | lo
Cc1cc(N2C(=O)c3nc(C)n(C(C)C)c3C2c2ccc(Cl)cc2)cn2c(C(F)F)nnc12 (stereo not shown) | lo
Cc1cc(N2C(=O)c3c(C(=O)NCCN(C)C)cn(C)c3C2c2ccc(Cl)cc2)cc2c1nnn2C (stereo not shown) | med
Cc1cc(N2C(=O)c3ccn(C4CC4)c3C2c2ccc(Cl)cc2)cn(C)c1=O (stereo not shown) | med
Cc1cc(N2C(=O)c3nc(C4=CCOCC4)n(C(C)C)c3[C@H]2c2ccc(Cl)cc2)cc2c1nnn2C | lo
Cc1nn(C2COC2)c2c1C(c1ccc(Cl)cc1)N(c1cc(C)c(=O)n(C)c1)C2=O (stereo not shown) | hi
Cc1cc(N2C(=O)c3nc(C)n(C(C)C)c3[C@H]2c2ccc(Cl)cc2)cc2c1nnn2C | lo
Cc1cc(N2C(=O)c3nc(C4=CCOCC4)n(C(C)C)c3[C@H]2c2ccc(Cl)cc2)cn2c(C)nnc12 | lo
Cc1nc(C)c(-c2nc3c(n2C(C)C)C(c2ccc(Cl)cc2)N(c2cc(C)c(=O)n(C)c2)C3=O)s1 (stereo not shown) | med
Cc1nn(C2CNC2)c2c1C(c1ccc(Cl)cc1)N(c1cc(C)c(=O)n(C)c1)C2=O (stereo not shown) | hi
Cc1cc(N2C(=O)c3c(C4CC4)nn(C)c3C2c2ccc(Cl)cc2)cn2c(C)nnc12 (stereo not shown) | lo
CCOC(=O)N1CC(n2nc(C)c3c2C(=O)N(c2cc(C)c(=O)n(C)c2)C3c2ccc(Cl)cc2)C1 (stereo not shown) | med
COc1ncccc1-n1nc(C)c2c1C(=O)N(c1cc(C)c3nnc(C)n3c1)C2c1ccc(Cl)cc1F (stereo not shown) | lo
Cc1cc(N2C(=O)c3c(C4CN(C)C4)cn(C)c3C2c2ccc(Cl)cc2)cn2c(C)nnc12 (stereo not shown) | lo
